Numbers sourced from patent US20130287781A1.

- Target system: T1, GST-human NOGO-A56 (human)
- T1 construct: Expressed in E. coli BL21 from pGEX-6P1 and purified on glutathione-sepharose; the GST tag is part of the protein in the assays; also called GST-Nogo-A 5+6; GST Nogo-A 5 + 6
- T1 sequence (chain, as listed by the source limits assumed): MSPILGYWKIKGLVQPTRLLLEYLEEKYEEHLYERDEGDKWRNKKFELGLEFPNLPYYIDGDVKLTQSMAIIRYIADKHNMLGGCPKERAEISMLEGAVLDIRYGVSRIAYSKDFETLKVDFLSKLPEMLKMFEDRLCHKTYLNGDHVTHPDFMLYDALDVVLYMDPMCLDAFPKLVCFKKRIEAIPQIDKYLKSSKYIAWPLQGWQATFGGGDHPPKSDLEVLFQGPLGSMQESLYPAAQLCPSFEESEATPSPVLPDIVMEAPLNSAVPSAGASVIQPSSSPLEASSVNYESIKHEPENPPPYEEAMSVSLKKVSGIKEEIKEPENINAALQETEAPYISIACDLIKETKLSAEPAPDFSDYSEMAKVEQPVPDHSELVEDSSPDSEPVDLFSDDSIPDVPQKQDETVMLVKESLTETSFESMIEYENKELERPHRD
- Experimental details: SPR (Biacore), GST-human NOGO-A56 amine-coupled to CM5, antibody flowed over, 25 C
Assay endpoint: kon (M⁻¹ s⁻¹)
Give just the numeric value; M⁻¹ s⁻¹ need not be written.

query: Tell me kon reported for H27L13 (antibody, human IgG1, kappa, V domains shown, IgG1 (L235A, G237A) / kappa; CAMPATH-1H signal (1-19) left out) VH: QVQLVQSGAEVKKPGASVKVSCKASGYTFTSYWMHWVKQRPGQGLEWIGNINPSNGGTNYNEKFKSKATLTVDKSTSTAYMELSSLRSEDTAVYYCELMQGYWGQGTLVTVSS VL: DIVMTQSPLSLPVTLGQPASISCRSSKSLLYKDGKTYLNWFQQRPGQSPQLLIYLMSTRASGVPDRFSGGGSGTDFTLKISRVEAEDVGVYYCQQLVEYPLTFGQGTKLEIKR
result: 6.2e+06
